Values from patent US8633204B2

So I've got a bunch of molecules here, and I need their pIC50 values.
Molecular target: PI3-Kα (Mus musculus (Mouse), UniProt P42337)
Sequence (P42337 whole entry): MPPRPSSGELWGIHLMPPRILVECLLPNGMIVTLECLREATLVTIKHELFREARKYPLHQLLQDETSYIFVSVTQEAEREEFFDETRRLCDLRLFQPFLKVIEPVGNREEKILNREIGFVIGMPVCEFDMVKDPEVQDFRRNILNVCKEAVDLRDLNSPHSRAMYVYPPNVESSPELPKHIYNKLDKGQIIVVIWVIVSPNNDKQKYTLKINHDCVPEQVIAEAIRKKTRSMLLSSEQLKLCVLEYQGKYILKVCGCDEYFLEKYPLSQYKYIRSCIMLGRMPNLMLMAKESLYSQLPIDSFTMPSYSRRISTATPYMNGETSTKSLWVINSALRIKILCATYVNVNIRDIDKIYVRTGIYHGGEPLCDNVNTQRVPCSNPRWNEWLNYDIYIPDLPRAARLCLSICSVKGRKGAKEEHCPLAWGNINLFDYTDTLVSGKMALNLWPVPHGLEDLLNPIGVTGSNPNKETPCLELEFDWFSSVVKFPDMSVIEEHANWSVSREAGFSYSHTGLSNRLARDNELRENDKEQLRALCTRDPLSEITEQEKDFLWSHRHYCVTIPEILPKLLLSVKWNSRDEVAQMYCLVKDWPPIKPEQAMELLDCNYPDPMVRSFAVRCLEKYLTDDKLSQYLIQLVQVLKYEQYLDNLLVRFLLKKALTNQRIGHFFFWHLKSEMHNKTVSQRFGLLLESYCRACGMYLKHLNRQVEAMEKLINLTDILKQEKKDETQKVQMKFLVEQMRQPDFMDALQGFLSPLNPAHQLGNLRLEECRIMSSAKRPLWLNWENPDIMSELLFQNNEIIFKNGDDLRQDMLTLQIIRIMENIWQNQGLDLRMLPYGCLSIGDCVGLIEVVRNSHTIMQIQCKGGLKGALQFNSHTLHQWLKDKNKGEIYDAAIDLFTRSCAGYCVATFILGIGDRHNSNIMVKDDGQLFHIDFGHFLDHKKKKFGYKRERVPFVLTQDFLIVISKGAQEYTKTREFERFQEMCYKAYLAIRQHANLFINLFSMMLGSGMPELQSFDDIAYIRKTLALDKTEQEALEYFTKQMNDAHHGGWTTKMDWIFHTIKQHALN
Sequence (P26450 whole entry partner): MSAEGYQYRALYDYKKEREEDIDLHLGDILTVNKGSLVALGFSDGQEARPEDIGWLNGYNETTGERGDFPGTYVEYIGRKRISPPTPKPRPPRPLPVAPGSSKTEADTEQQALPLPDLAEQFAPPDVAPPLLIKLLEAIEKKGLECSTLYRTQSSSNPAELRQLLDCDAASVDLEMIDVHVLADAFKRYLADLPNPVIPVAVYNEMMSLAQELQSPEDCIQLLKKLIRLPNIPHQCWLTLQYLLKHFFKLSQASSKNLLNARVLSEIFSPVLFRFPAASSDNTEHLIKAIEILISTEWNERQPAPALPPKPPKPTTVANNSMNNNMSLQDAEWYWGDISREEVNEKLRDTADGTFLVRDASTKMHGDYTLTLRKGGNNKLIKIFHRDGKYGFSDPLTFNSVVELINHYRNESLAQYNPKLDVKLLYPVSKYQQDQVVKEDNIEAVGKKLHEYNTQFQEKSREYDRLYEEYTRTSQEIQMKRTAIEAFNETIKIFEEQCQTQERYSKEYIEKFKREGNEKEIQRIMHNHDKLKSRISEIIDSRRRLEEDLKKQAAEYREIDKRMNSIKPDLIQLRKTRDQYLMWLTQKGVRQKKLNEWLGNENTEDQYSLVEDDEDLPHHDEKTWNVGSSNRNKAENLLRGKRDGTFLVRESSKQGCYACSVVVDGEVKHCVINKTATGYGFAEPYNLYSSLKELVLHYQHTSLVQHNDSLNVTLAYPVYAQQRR
Experiment: PI3-Kα Biochemical Assay (fluorescence polarization kinase assay)
One number for each entry, as −log10 of the molar value.

Report pIC50, nothing else, for this molecule: COc1ccc(Cn2c(=O)c(-c3ccccc3)cc3c(C)nc(N)nc32)cc1 [Compound 149]
6.51

Check the records and state pIC50 for Cc1nc(N)nc2c1cc(-c1cnc3ccccc3c1)c(=O)n2CC(C)(C)O [Compound 173]
6.57

Dear reader, for each entry below, please note its pIC50.
1. CCNc1nc(C)c2cc(CCC(=O)OCC)c(=O)n(C3CCCC3)c2n1 [Compound 132]
2. CNc1nc(C)c2cc(C(=O)Nc3cc[nH]n3)c(=O)n(C3CCCC3)c2n1 [Compound 250]
3. Cc1nc(N)nc2c1cc(Br)c(=O)n2[C@H]1CC[C@@H](O)CC1 [Compound 168]
4. Cc1nc(N)nc2c1cc(-c1cnn(CC(F)F)c1)c(=O)n2C1CCCC1 [Compound 237]

[5.26, 8.63, 6.89, 7.92]

* * *

Target: PI3-Kα (Mus musculus (Mouse))
readout-name: IC50 (nM)
One number for each entry, in nM.

Completed entries (count: 4):
Recall the reported IC50 of `Cc1nc(N)nc2c1cc(C#N)c(=O)n2C1CCC1` when tested on PI3-Kα (Mus musculus (Mouse)).
95

Write down measured IC50 (PI3-Kα (Mus musculus (Mouse))) for this compound. `COc1ncc(-c2cc3c(C)nc(N)nc3n(C(C)C)c2=O)cn1`
2.2

Would you please give the reported IC50 of `CNc1nc(C)c2cc(-c3cncnc3)c(=O)n(C3CCCC3)c2n1` with PI3-Kα (Mus musculus (Mouse))?
23

Report the value of IC50 obtained on PI3-Kα (Mus musculus (Mouse)) for `Cc1nc(N)nc2c1cc(-c1cnn(C(=O)OC(C)(C)C)c1)c(=O)n2N1CCCC1` .
93

***
Fetch value of IC50 on PI3-Kα (Mus musculus (Mouse)) for `COc1ccc(-c2cc3c(C)nc(N)nc3n(C(C)C)c2=O)cn1` .
11

* * *

// values below are pIC50; system is PI3-Kα (Mus musculus (Mouse), UniProt P42337)
Numbers only, as −log10 of the molar value.

Provide pIC50 for all items below, preserving their order.
1. COc1ncc(-c2cc3c(C)nc(N)nc3n(C3CCOCC3)c2=O)cc1F
2. CCNc1nc(C)c2cc(CCC(=O)Nc3ncc[nH]3)c(=O)n(C3CCCC3)c2n1
3. CCNc1nc(C)c2cc(CCC(=O)O)c(=O)n(C3CCCC3)c2n1

1. 8.84
2. 6.51
3. 7.27
